Cited source: patent US11274097B2

- PROTOCOL: log P by HPLC on a reversed-phase column (C 18), EEC Directive 79/831 Annex V.A8
- Format: physicochemical
- RUN_CONDITIONS: acidic range, pH 2.7, 0.1% aqueous formic acid/acetonitrile; 55° C.
QUANTITY: LOGP_HCOOH

COMPOUND | QUANTITY | ENDPOINT_RESULT
CC[S+]([O-])c1ccccc1-c1nc2cc(C(F)(F)F)ncc2n1C (centres unmarked) | LOGP_HCOOH | 1.90
CCSc1cc(C(F)(F)F)cnc1-c1nc2nc(C(F)(F)F)ncc2n1C | LOGP_HCOOH | 3.29
CCS(=O)(=O)c1cc(C(F)(F)F)cnc1-c1nc2cc(-n3cc(C(F)(F)F)cn3)ncc2n1C | LOGP_HCOOH | 3.84
CCS(=O)(=O)c1ccc(OC)nc1-c1nc2cc(C(F)(F)F)ncc2n1C | LOGP_HCOOH | 2.53
CCS(=O)(=O)c1c(Cl)cccc1-c1nc2cc(C(F)(F)F)ncc2n1C | LOGP_HCOOH | 2.17
CCS(=O)(=O)c1cc(C(F)(F)F)cnc1-c1nc2cc(-n3ccc(C(F)(F)F)n3)ncc2n1C | LOGP_HCOOH | 3.90
Cn1c(-c2ccc(C(F)(F)F)cc2[S+](C)[O-])nc2cc(C(F)(F)F)ncc21 (centres unmarked) | LOGP_HCOOH | 2.41
FC(F)(F)c1cc2nc(-c3ccccc3SC3COC3)oc2cn1 | LOGP_HCOOH | 3.15
